ASSAYED_SYSTEM: SD1-RBD of SARS-CoV-2 S (ancestral), aa 319-591 (SARS-CoV-2, ancestral (Wuhan-Hu-1; …, UniProt P0DTC2)
ASSAY_ENDPOINT: binding result

BINDER	ASSAY_ENDPOINT	MEASURED_VALUE
sd1.033 (antibody, V domains shown) VH: QVQLVQSGAEVKKPGSSVKVSCKASGGVYSTYAVSWVRQAPGQGLEWIGGIIPMFGTANYAQNFQGRVTITADESTRTAYMEVSSLRSEDTAVYYCASPSAPTYYYDSSRYYSFDYWGQGTLVTVSS VL: EIVLTQSPGTLSLSPGERATLSCRASQSVSSNFLAWFQQKPGQPPRLLIYGASSRATGIPDRFSGSGSGTDFTLTISRLVPEDFAVYFCQQYGSSRYSFGQGTKLEIK	binding result	binds
rbd.035 (antibody, V domains shown) VH: EVQLLESGGGLIEPGGSLRLSCAASGFPFNTFAMTWVRQPPGKGLEWVATISSRGDYTFYADFVKGRFSISRDNANNALWLDMSGLRAEDTALYYCAKGESGYDLYLYGLDLWGQGTTVTVSS VL: DIQMTQSPSSLSASVGDGVTITCRASQNINNYLSWYQKKAGKAPKLLIYGASTLHSGVPSRFSGSGSGTDFTLTISSLQPEDFASYYCQQNSPTPPWTFGQGTKVEIK	binding result	binds
sd1.129 (antibody, V domains shown) VH: QVQLVQSGAEVKRPGSSVKVSCKASGGAFSNYAISWVRQAPGQGLEWMGGIIPIFGTTNYAQRFQGRVTISADESTGTAYMELSSLRFADTAIYYCARADAYSGSYYPSANWFDPWGQGTLVTVSS VL: EIVLTQSPATLSLSPGERATLSCRASQSVSNYLAWYQQKPGQAPRLLIYDASNRATGIPARFSGSGSGTDFTLTISSLEPEDFAVYYCQQRQNWPPGWTFGQGTKVEIK	binding result	binds
sd1.150 (antibody, V domains shown) V domain 1: EVQLVESGGGVVQPGRSLRLSCAASGFTFSSHGMHWVRQAPGRGLEWVAVISFDGRNKFYVDSVKGRFTISRDNSKNTLYLHMNSLRAADTAVYYCAKDHDPDGSGSYFSNWFDAWGQGTLVTVSS V domain 2: SYELTQPPSVSVSPGQTASITCSGDKLGDKYAYWYRQKPGQSPVVVIYQDNKRPSGIPERFSGSNSGNTATLTISGTQAMDEADYYCQAWDTYSGVFGTGTQVTVL	binding result	binds

Now, please, on to the next binder.
Please fill in: binding result reported for sd1.047 (antibody, V domains shown) VH: EVQLVESGGGVVEPGRSLRLSCVASGFPFKNYGMHWVRQAPGKGLEWMAVISYDGRLEYYAESVQGRFTISRDTSRKTLYLQMDSLRVDDTAVYYCAKDGVMGFCSGDDCTPPFDSWGQGTLVTVSS VL: QSALTQPASVSGSPGQSITISCTGTSSDVGGYNYVSWFQQYPGKAPQLLIYEVSNRPSGVSNRFSGSKSGNTASLTISGLQAEDEADYYCSSYAGSPYVFGIGTRVTVL = binds
